System: OVCAR-5
Conditions: read-out: 50% lethal concentration (LC50); OVCAR-5, Ovarian

compound: C=C1CCC2C3(C)COC(c4cn(-c5ccccc5)nc4-c4cccc(Br)c4)OC3CCC2(C)C1CC=C1C(=O)OCC1O (stereo not shown)
CC50 [µM]: 47.7

compound: C=C1CCC2C3(C)COC(c4cn(-c5ccccc5)nc4-c4ccccc4)OC3CCC2(C)C1CC=C1C(=O)OCC1O (stereo not shown)
CC50 [µM]: 8.71

compound: C=C1CCC2C3(C)COC(c4cn(-c5ccccc5)nc4-c4ccc(C)cc4)OC3CCC2(C)C1CC=C1C(=O)OCC1O (stereo not shown)
CC50 [µM]: 40.5

compound: C=C1CCC2C3(C)COC(c4cn(-c5ccccc5)nc4-c4ccc(OC)cc4)OC3CCC2(C)C1CC=C1C(=O)OCC1O (stereo not shown)
CC50 [µM]: 9.52
